Reported melting point values for the following molecules.
Measurement name: melting point

- C[C@H](NS(=O)(=O)c1cnc(-c2c(C#N)c3cc(C(F)F)ccc3n2C2CCC2)nc1)C(F)(F)F: 186 to 188 °C
- C[C@H](NS(=O)(=O)c1cnc(-c2c(C#N)c3ccc(CC(F)F)cc3n2CC2CC2)nc1)C(F)(F)F: 195 to 205 °C
- C[C@H](NS(=O)(=O)c1ccc(-c2c(C#N)c3cc(C(F)F)ccc3n2C2CCCC2)nc1)C(F)(F)F: 187 to 188 °C
- C[C@H](NS(=O)(=O)c1cnc(-c2c(C#N)c3ccc(Cl)cc3n2-c2ccccn2)nc1)C(F)(F)F: 163 to 166 °C

* * *

Measurement name: melting point

- Cc1ccc2c(C#N)c(-c3ccc(S(=O)(=O)NC(C)(C)C(F)(F)F)cn3)n(-c3ccccc3)c2c1: 210 to 212 °C
- C[C@H](NS(=O)(=O)c1cnc(-c2c(C#N)c3cc(C#N)ccc3n2C2CCCC2)nc1)C1CC1: 218 to 223 °C
- CC(C)NS(=O)(=O)c1cnc(-c2c(C#N)c3ccc(OC(F)(F)F)cc3n2C2CCC2)nc1: 200 to 203 °C
- Cc1ccc2c(c1)c(C#N)c(-c1ccc(S(=O)(=O)NC(CF)CF)cn1)n2-c1ccccn1: 177 to 179 °C
- C[C@H](NS(=O)(=O)c1ccc(-c2c(C#N)c3cc(F)ccc3n2C2C=CCCC2)nc1)C(F)(F)F (stereo partly drawn): 186 to 187 °C
- N#Cc1c(-c2ccc(S(=O)(=O)NC(CF)CF)cn2)n(C2CCC2)c2cc(CC(F)F)ccc12: 166 to 168 °C
- Cc1ccc2c(C#N)c(-c3ccc(S(=O)(=O)N[C@@H](C)C(F)(F)F)cn3)n(C(C)C)c2c1: 211 to 216 °C
- Cc1ccc2c(c1)c(C#N)c(-c1ccc(S(=O)(=O)N[C@@H](C)C(F)(F)F)cn1)n2C1CCCCC1: 175 to 180 °C
- N#Cc1c(-c2ccc(S(=O)(=O)NC(CF)CF)cn2)n(-c2ccccc2F)c2cc(OC(F)F)ccc12: 188 to 191 °C
- COc1ccc2c(c1)c(C#N)c(-c1ncc(S(=O)(=O)NC(CF)CF)cn1)n2C1CCC1: 217 to 219 °C
- C[C@@H](NS(=O)(=O)c1ccc(-c2c(C#N)c3cc(F)ccc3n2C2CCCC2)nc1)C(F)(F)F: 158 to 160 °C
- CCS(=O)(=O)Nc1ccc(-c2c(C#N)c3ccc(C4CC4)cc3n2C2CCC2)cn1: 241 to 243 °C
- Cc1ccc2c(C#N)c(-c3ncc(S(=O)(=O)NC(CF)CF)cn3)n(C3CCCC3)c2c1F: 226 to 232 °C
- C[C@H](NS(=O)(=O)c1ccc(-c2c(C#N)c3ccc(Cl)cc3n2-c2ccccn2)nc1)C1CC1: 199 to 201 °C
- C[C@H](NS(=O)(=O)c1ccc(-c2c(C#N)c3cc(C#N)ccc3n2C2CCCC2)nc1)C(F)(F)F: 225 to 228 °C

* * *

Reported melting point values for the following molecules.
Measurement name: melting point

* CC(C)(NS(=O)(=O)c1ccc(-c2c(C(N)=O)c3cc(F)c(OC(F)F)cc3n2C2CCC2)nc1)C(F)(F)F | 207 to 209 °C
* COc1ccc2c(C#N)c(-c3ccc(S(=O)(=O)N[C@H](C)C(F)(F)F)cn3)n(C3CCC3)c2c1 | 206 to 212 °C
* Cc1cc2c(cc1F)c(C#N)c(-c1ccc(S(=O)(=O)N[C@@H](C)C(F)(F)F)cn1)n2-c1ccc(F)c(C)n1 | 240 to 246 °C
* Cc1ccc2c(C#N)c(-c3ccc(S(=O)(=O)NC(C)C)cn3)n([C@@H]3CCOC3)c2c1 | 164 to 167 °C
* CC(C)n1c(-c2ccc(S(=O)(=O)N[C@@H](C)C3CC3)cn2)c(C#N)c2cc(F)ccc21 | 138 to 143 °C
* Cc1c(F)cc2c(C#N)c(-c3ccc(S(=O)(=O)N[C@H](C)C(F)(F)F)cn3)n(C3CCCC3)c2c1F | 212 to 217 °C
* Cc1cc2c(cc1F)c(C#N)c(-c1ccc(S(=O)(=O)NC(C)(C)C)cn1)n2C1CCCC1 | 208 to 209 °C
* CCc1cc2c(cc1F)c(C#N)c(-c1ccc(S(=O)(=O)NC(C)(C)C(F)(F)F)cn1)n2C1CCCC1 | 142 to 143 °C
* Cc1ccc2c(C#N)c(-c3ccc(S(=O)(=O)NC(CF)CF)cn3)n(C(C)C)c2c1 | 188 to 195 °C
* Cc1cc2c(cc1F)c(C(N)=O)c(-c1ccc(S(=O)(=O)N[C@H](C)C(F)(F)F)cn1)n2C1CCCCC1 | 272 to 276 °C
* C[C@H](NS(=O)(=O)c1cnc(-c2c(C#N)c3ccc(F)cc3n2C2CCC2)nc1)C1CC1 | 207 to 208 °C
* CC(C)NS(=O)(=O)c1cnc(-c2c(C#N)c3cc(F)ccc3n2C2CCCCC2)nc1 | 223 to 225 °C
* C[C@H](NS(=O)(=O)c1ccc(-c2c(C#N)c3ccc(CF)cc3n2C2CCC2)nc1)C(F)(F)F | 205 to 209 °C
* C[C@H](NS(=O)(=O)c1ccc(-c2c(Cl)c3cc(F)c(C4CC4)cc3n2-c2ncccn2)nc1)C(F)(F)F | 248 to 250 °C
* Cc1cc2c(C#N)c(-c3ncc(S(=O)(=O)NC(C)C)cn3)n(C3CCCC3)c2cc1Cl | 216 to 216.5 °C
